# subject of test: T1, human neuropeptide Y2 receptor (human, UniProt P49146 1-381)
# T1 sequence (looked up): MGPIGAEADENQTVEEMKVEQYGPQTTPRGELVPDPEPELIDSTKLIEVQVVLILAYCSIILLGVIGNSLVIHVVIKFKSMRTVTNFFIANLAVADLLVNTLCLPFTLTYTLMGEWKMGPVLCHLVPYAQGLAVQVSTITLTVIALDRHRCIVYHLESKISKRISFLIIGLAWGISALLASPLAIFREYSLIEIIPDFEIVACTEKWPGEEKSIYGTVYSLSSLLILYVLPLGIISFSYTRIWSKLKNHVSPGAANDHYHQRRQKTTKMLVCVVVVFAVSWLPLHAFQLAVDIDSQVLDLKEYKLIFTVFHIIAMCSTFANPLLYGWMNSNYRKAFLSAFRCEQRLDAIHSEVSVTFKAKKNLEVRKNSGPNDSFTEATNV
# method notes: cell-based or functional assay
*1 amine or outer side, *2 acyl side, *3 side chain or, on linkers, in order; H or OH if unused. Where no end group is shown, it is not given here. Side-chain parts run from the residue outwards. [ ]: non-standard residue; d: D form. The star is where a group is joined. C20 diacid = O=C(O)CCCCCCCCCCCCCCCCCCC(=O)*; γGlu = O=C(O)[C@H](CCC(=O)[*:2])N[*:1]; dtOrn = not defined here; AEEA = NCCOCCOCC(=O)O; Aib = CC(C)(N)C(=O)O
parameter: EC50, CreLuc reporter, 100% hP (nM)
Supply the numeric figure in nM, leaving out any unit text.

// below: answered binders
YXEGTFTSDYSIXLEKQAQXAFVRHLINKLTRQRY (Aib at 2, 13, 20; Lys29 epsilon-amino: C18DA-gGlu-gGlu-gGlu-gGlu-gGlu-gGlu-eLys; C-terminal amide) [Compound 127] :: 76.9
Y[Aib]EGTFTSDYSI[Aib]LEKQAQ[Aib]AFVRHLINK([γGlu-γGlu-AEEA-γGlu-γGlu-γGlu-γGlu-C20 diacid])[Aib]TRQRY-NH2 [Compound 136] :: 123
YXEGTFTSDYSIXLEKQAAXAFVRHLINKXTRQRY (Aib at 2, 13, 20, 30; Lys29 epsilon-amino: C18DA-gGlu-gGlu-gGlu-gGlu-gGlu-gGlu-eLys; C-terminal amide) [Compound 111] :: 77.4
Y[Aib]EGTFTSDYSI[Aib]LEKQAQ[Aib]AFVRHLINK([dtOrn-γGlu-γGlu-γGlu-γGlu-γGlu-γGlu-C20 diacid])[Aib]TRQRY-NH2 (reading uncertain) [Compound 97] :: 135

// next item, EC50, CreLuc reporter, 100% hP requested
*Q* EC50, CreLuc reporter, 100% hP for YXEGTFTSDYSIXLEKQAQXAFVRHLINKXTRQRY (Aib at 2, 13, 20, 30; Lys29 epsilon-amino: C18DA-gGlu-gGlu-gGlu-gGlu-gGlu-OEG-OEG; C-terminal amide) [Compound 117] ?
*A* 39.2
